As shown below, each of these binders has a reported p-Smad1/5/8 (%) value.
assayedTarget: growth factor receptors
testSummary: cell-based or functional assay
Where no end group is shown, it is not given here.
Give the number; % is assumed, so skip it.

Some solved cases for reference:
binder: RNVQCRPTQLEPLPIVYYEIVRKKPEQLSNTLEDHLA (not fully specified) [GFR-binding compound SEQ ID NO: 56]
measureUnit: %
quantitativeResult: 47
--
binder: NDEGLECVPTEERPVQVRKIRIKPHQGQKKATVFLQHNK (not fully specified) [GFR-binding compound SEQ ID NO: 59]
measureUnit: %
quantitativeResult: 34
--
binder: NDEGLECVPTEERPVQVRKIRIKPHQGQKKATVFLQHNK (not fully specified) [GFR-binding compound SEQ ID NO: 54]
measureUnit: %
quantitativeResult: 41
--
binder: VSQDLSAISTLYLKIVRKEPLKNYQEMVEE [GFR-binding compound SEQ ID NO: 58]
measureUnit: %
quantitativeResult: 49
--
binder: VPTHHSAISTLYLELAGEKPLKNYQFLQHNK [GFR-binding compound SEQ ID NO: 57]
measureUnit: %
quantitativeResult: 38
--
binder: RNVQCRPTQLEPLPIVYYEIVRKKPEQLSNTLEDHLA (not fully specified) [GFR-binding compound SEQ ID NO: 61]
measureUnit: %
quantitativeResult: 44

Turning to the following binder.
Q: Name the reported p-Smad1/5/8 (%) value associated with the binder ASASPSSVPQDLEPLTILYYVGRTPKVEQLSNMV [GFR-binding compound SEQ ID NO: 55]
Result: 32
